testedSystem: AXL (fusion protein of amino acids 464-885 of the intracellular domain of human AXL with glutathione transferase) (Homo sapiens, UniProt P30530)
Sequence (P30530 473-894): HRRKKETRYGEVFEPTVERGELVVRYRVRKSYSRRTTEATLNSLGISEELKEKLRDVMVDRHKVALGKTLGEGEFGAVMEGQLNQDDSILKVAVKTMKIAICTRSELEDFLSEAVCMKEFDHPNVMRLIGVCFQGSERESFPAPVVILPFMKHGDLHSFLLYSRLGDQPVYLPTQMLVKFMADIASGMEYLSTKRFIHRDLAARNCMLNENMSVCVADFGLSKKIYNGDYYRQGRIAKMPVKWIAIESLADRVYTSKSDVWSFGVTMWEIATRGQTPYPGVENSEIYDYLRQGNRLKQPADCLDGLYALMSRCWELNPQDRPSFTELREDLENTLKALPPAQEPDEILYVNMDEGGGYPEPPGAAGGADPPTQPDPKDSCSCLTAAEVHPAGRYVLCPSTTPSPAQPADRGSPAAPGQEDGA
protocolText: Cell-Free Axl Kinase Inhibitory Activity
experimentalReadout: IC50

[
  {
    "inputSmiles": "Nc1ncc(-c2cnn(C3CCNCC3)c2)cc1-c1ccc(NC(=O)c2cn(CCF)cc(-c3ccc(F)cc3)c2=O)cc1",
    "experimentalReadout": "IC50",
    "measured": "0.1 to 1 nM"
  },
  {
    "inputSmiles": "CCn1cc(C(=O)Nc2ccc(-c3cc(-c4cnn(C)c4)cnc3N)cc2)c(=O)c(-c2ccccc2)c1",
    "experimentalReadout": "IC50",
    "measured": "1 to 10 nM"
  },
  {
    "inputSmiles": "CCn1cc(C(=O)Nc2ccc(-c3cc(-c4ccc(OC[C@H]5COCCO5)c(OC)c4)cnc3N)cc2)c(=O)c(-c2ccc(F)cc2)c1",
    "experimentalReadout": "IC50",
    "measured": "1 to 10 nM"
  }
]

Query :: Quick one: IC50 for `CCn1cc(C(=O)Nc2ccc(-c3cc(-c4cnn(C)c4)cnc3N)cc2)c(=O)c(-c2ccc(F)cc2)c1` ?
Result :: 1 to 10 nM

Query :: Also `COc1ccc(-c2cnc(N)c(-c3ccc(NC(=O)c4cn(CCF)cc(-c5ccccc5)c4=O)cc3)c2)cc1OC` , if possible.
Result :: 1 to 10 nM

Query :: And then `COc1ccc(-c2cnc(N)c(-c3ccc(NC(=O)c4cn(CCF)cc(-c5ccc(F)cc5)c4=O)cc3)c2)cc1OC` , what is it?
Result :: 1 to 10 nM

Query :: Would you mind doing `CCn1cc(C(=O)Nc2ccc(-c3cc(-c4ccc(OC)c(OC)c4)cnc3N)cc2)c(=O)c(-c2ccc(F)cc2)c1` as well?
Result :: 0.1 to 1 nM
